Target desc: Human recombinant MAO-B (hMAO-B) (Homo sapiens, UniProt P27338)
Sequence (P27338 1-520): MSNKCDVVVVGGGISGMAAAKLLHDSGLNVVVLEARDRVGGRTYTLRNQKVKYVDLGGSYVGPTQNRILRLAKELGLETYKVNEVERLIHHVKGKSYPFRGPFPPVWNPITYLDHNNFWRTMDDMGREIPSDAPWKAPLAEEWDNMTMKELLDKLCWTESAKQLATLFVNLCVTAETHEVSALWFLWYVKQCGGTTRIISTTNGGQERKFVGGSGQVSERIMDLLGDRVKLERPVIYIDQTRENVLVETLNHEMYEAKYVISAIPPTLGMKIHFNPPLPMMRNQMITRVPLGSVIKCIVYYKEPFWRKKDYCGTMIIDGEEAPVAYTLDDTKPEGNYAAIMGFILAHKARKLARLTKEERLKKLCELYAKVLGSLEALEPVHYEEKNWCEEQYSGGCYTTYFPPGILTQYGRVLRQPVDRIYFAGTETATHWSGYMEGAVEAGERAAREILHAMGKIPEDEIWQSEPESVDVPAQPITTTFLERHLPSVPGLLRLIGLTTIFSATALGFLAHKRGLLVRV
Assay explanation: Monoamine oxidase enzyme assay (Amplex Red), MAO-B
Applied conditions: as given in abstract
Reported property: pIC50
Expect pIC50 as a plain number equal to -log10 of the molar concentration.

Ask: Could you tell me which pIC50 is on file for O=C(Nc1ccc2c(ccn2C(=O)c2cccc(F)c2)c1)c1cnccn1 ?
Reply: 6.11

Ask: Could you tell me which pIC50 is on file for O=C(Nc1ccc2c(ccn2Cc2ccc(F)cc2)c1)c1cnccn1 ?
Reply: 5.78

----------
Target desc: Human recombinant MAO-A (hMAO-A) (Homo sapiens, UniProt P21397)
Sequence (P21397 whole entry): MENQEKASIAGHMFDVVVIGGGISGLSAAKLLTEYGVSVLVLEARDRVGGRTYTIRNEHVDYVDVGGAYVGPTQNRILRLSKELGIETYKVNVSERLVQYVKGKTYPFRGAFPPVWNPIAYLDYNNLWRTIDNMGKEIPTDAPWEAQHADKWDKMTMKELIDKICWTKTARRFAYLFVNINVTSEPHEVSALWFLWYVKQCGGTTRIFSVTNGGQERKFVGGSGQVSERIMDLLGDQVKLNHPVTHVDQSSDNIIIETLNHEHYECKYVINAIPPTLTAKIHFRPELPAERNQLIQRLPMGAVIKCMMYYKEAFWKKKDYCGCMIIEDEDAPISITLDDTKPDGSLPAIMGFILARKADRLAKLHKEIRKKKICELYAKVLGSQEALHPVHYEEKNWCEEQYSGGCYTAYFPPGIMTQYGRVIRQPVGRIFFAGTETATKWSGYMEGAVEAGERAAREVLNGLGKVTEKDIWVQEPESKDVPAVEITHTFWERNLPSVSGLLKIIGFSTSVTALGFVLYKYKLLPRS
Assay explanation: Monoamine oxidase enzyme assay (Amplex Red), MAO-A selectivity assay
Reported property: IC50

Ask: Could you tell me which IC50 is on file for O=C(Nc1ccc2c(ccn2C(=O)c2cccc(F)c2)c1)c1cnccn1 ?
Reply: > 100 µM

Ask: Could you tell me which IC50 is on file for O=C(Nc1ccc2c(ccn2Cc2ccc(F)cc2)c1)c1cnccn1 ?
Reply: > 100 µM

----------
Target chain: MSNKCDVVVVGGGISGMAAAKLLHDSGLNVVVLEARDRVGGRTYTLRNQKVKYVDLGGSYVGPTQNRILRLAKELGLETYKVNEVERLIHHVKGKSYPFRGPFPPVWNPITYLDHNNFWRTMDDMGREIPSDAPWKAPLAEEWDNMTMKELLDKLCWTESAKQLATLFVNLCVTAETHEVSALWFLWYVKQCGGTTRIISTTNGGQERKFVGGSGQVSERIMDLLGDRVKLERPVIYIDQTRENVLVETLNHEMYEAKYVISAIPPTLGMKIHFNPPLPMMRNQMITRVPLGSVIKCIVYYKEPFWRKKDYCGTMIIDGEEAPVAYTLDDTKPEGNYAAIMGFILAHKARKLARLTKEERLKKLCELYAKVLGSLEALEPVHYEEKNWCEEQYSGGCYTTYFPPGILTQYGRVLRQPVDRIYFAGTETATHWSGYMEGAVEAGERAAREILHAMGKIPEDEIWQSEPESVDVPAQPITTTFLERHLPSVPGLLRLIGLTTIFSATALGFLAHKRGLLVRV
Reported property: Ki
A complete answer gives the number and then names the unit.

Ask: Could you tell me which Ki is on file for O=C(Nc1ccc2c(ccn2C(=O)c2cccc(F)c2)c1)c1cnccn1 ?
Reply: 94.5 nM
